Molecular target: IL-17A/A (Homo sapiens)
Sequence (Q16552 24-155): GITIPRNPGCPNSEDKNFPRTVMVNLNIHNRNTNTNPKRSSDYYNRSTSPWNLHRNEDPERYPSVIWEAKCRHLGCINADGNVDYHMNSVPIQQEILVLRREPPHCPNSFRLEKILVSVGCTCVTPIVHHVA
Experiment: IL-17A/A HEK-Blue cell assay (SEAP reporter)
Conditions: HEK-Blue IL-17A reporter cells, IL17A/A 5 ng/mL, 20 hours, SEAP read at A630; read-out: HEK-Blue IL17AA (IC50 for IL-17A/A inhibition)
Give IC50 for every item shown.

Consider the following illustrative entries.
| molecule | IC50 |
| --- | --- |
| CCn1nccc1C(=O)N[C@H](c1cn2nc(C[C@H]3C[C@@H](C(F)(F)F)CNC3=O)c(C3COCCN3C)nc2n1)C1CCC(F)(F)CC1 (single isomer, unassigned) [Compound 404] | 100 to 1000 nM |
| CCn1ncnc1C(=O)N[C@H](c1cn2nc(C[C@H]3C[C@@H](C(F)(F)F)CNC3=O)c(C3CCOCC3)nc2n1)[C@H]1CCCC(F)(F)C1 [Compound 422] | < 100 nM |

Query: Quick check: IC50 of CCn1nccc1C(=O)N[C@H](c1cn2nc(C[C@H]3C[C@@H](C(F)(F)F)CNC3=O)c(CN(C)C)nc2n1)C1CCC(F)(F)CC1 [Compound 287] ?
Result: 100 to 1000 nM
